Test system: DIV30
Test: qHTS profiling for inhibitors of Plasmodium falciparum proliferation (AID 504749); also: nearly all actives have a fitted effect of over 60% in size; also: potency is read from the fitted curve at half-maximal effect
Conditions: P. falciparum in erythrocytes, SYBR Green DNA, 72 h; series mostly up to 28.7 µM
Inconclusive results are not listed. Activity calls are given as the source filed them. Calls follow the shape of the dose curve; as a rule, active = well fitted inhibition curve with a large enough effect; inconclusive = small, poorly fitted or top-dose-only effect; inactive = flat fitted curve, though single readings scatter.

Molecule | Target of assay | Potency
CN1CCN2c3ncccc3Cc3ccccc3C2C1 (configuration not stated) | DIV30 | inactive
CS(=O)(=O)c1ccc(C2=C(c3ccccc3)C(=O)OC2)cc1 | DIV30 | inactive
NS(=O)(=O)c1cc(Cl)c(Cl)c(S(N)(=O)=O)c1 | DIV30 | inactive
N#CC(c1ccc(Cl)cc1)c1c(Cl)cc(-n2ncc(=O)[nH]c2=O)cc1Cl (configuration not stated) | DIV30 | inactive
C=C1c2cccc(O)c2C(O)=C2C(=O)[C@@]3(O)C(O)=C(C(N)=O)C(=O)[C@@H](N(C)C)[C@@H]3[C@@H](O)[C@H]12 | DIV30 | inactive
Fc1ccc(C(c2ccc(F)cc2)N2CCN(CC=Cc3ccccc3)CC2)cc1 | DIV30 | 16.9 µM (active)
COc1c(C)c2c(c(O)c1CC=C(C)CCC(=O)OCCN1CCOCC1)C(=O)OC2 | DIV30 | 12 µM (active)

---

Experiment: Primary qHTS for inhibitors of nuclear receptor binding SET domain protein 2 (NSD2) in an RCH-ACV wild type WT cells (2C) (AID 1645877); also: nearly all actives have a fitted effect of over 70% in size
Settings: RCH-ACV (leukaemia line) NSD2 WT (2C) viability, CellTiter-Glo, 72 h; series mostly up to 44.9 µM
Records with an inconclusive call do not appear. Calls of active or inactive are those of the source. Calls come from the whole dose curve; as a rule, active = well fitted inhibition curve with a large enough effect; inconclusive = small, poorly fitted or top-dose-only effect; inactive = no such curve, though single readings can be large or run the other way.
Labels: 1 (yes) (active), 0 (no) (inactive)

Compound | Category
COc1cc([C@@H]2c3cc4c(cc3[C@@H](O[C@@H]3O[C@@H]5CO[C@@H](C)O[C@@H]5[C@H](O)[C@@H]3O)[C@H]3COC(=O)[C@H]23)OCO4)cc(OC)c1O | 1 (yes)
COc1cc2ncn(-c3cc(OCc4ccccc4S(C)(=O)=O)c(C#N)s3)c2cc1OC | 0 (no)
CCN1CCC(n2cc(CNc3cc(Cl)c4ncc(C#N)c(Nc5ccc(F)c(Cl)c5)c4c3)nn2)CC1 | 1 (yes)
O=C(NC[C@H](O)CO)c1ccncc1Nc1ccc(I)cc1F | 1 (yes)
OC(c1cc(C(F)(F)F)nc2c(C(F)(F)F)cccc12)C1CCCCN1 (centres undefined) | 1 (yes)
CCOc1ccccc1N=Nc1c(C)[nH]n(-c2nc(-c3ccccc3)cs2)c1=O | 0 (no)
COc1cc(F)c(C(C)C)cc1-c1ccc(C(F)(F)F)cc1CN1C(=O)O[C@H](c2cc(C(F)(F)F)cc(C(F)(F)F)c2)[C@@H]1C | 0 (no)
Cc1cnc(-c2cc(N3CCN(C(=O)CCS(C)(=O)=O)CC3)ncc2Cl)c(C)c1 | 0 (no)
Cc1cccc(Nc2nc(N[C@@H]3CCCC[C@H]3N)ncc2C(N)=O)c1 | 1 (yes)
NS(=O)(=O)c1ccc(Nc2nc(OCC3CCCCC3)c3[nH]cnc3n2)cc1 | 1 (yes)
O=C(NCCCCN1CCOCC1)c1cc2ccccc2o1 | 0 (no)
C[C@@]1(C(=O)Nc2ccc(F)nc2)CCCN1c1nc(Nc2cc(C3CC3)[nH]n2)c2cccn2n1 | 1 (yes)
O=S(=O)(O)c1ccc2cc(N=Nc3cc(S(=O)(=O)O)c4cccnc4c3O)ccc2c1 | 0 (no)
NS(=O)(=O)c1cc(Cl)c(Cl)c(S(N)(=O)=O)c1 | 0 (no)
C[C@@H](N)c1ccc(C(=O)Nc2ccnc3[nH]ccc23)cc1 | 1 (yes)
CN(C)N=Nc1nc[nH]c1C(N)=O | 1 (yes)
CC(C)C[C@@H](C(=O)N[C@H](C(=O)OC1CCCC1)c1ccccc1)[C@H](O)C(=O)NO | 1 (yes)
CNC(=O)c1c(-c2ccc(F)cc2)oc2cc(N(CCO)S(C)(=O)=O)c(C3CC3)cc12 | 0 (no)
O=C1NC(=O)C(c2cnc3ccccn23)=C1c1cn2c3c(cccc13)CN(C(=O)N1CCOCC1)CC2 | 1 (yes)

---

Assay: Quantitative High-Throughput drug screen in 47 multiple myeloma cell lines against the NCATS MIPE library collection: LP1_DSMZ cell viability assay (AID 1918982); also: nearly all actives have a fitted effect of over 35% in size
Conditions: LP1 myeloma viability, CellTiter-Glo ATP luminescence, 48 h; series mostly up to 45.8 µM
Results filed as inconclusive are left out. The source made the active and inactive calls. The call rests on the fitted dose curve; in most records, active means well fitted cell-killing curve with a large enough effect; inconclusive means small, poorly fitted or top-dose-only effect, or effect the other way; inactive means no such curve, though single readings can be large or run the other way.
Labels: TRUE for active, FALSE for inactive

Compound string | Category
CN(C)CCN(C)C(=O)c1ccc(NC(=O)Nc2ccc(-c3nc(N4CCOCC4)c4ccn(CC(F)(F)F)c4n3)cc2)cc1 | TRUE
CCCCC(F)(F)[C@@]1(O)CC[C@H]2[C@H](CC(=O)[C@@H]2CCCCCCC(=O)O)O1 | FALSE
CC[C@H](C)C(=O)O[C@H]1C[C@H](O)C=C2C=C[C@H](C)[C@H](CC[C@@H](O)C[C@@H](O)CC(=O)O)[C@H]21 | FALSE
N#CC(=C1Nc2ccccc2S1)c1ccnc(OCc2ccc(CN3CCOCC3)cc2)n1 | TRUE
NC(=O)c1ncn([C@@H]2O[C@H](CO)[C@@H](O)[C@@H]2O)n1 | FALSE
CC[C@]1(O)C[C@H]2CN(CCC3=c4ccccc4=N[C]3[C@@](C(=O)OC)(c3cc4c(cc3OC)N(C)[C@H]3[C@@](O)(C(N)=O)[C@H](O)[C@]5(CC)C=CCN6CC[C@]43[C@@H]65)C2)C1 | TRUE
COc1c(C)c2c(c(O)c1CC=C(C)CCC(=O)OCCN1CCOCC1)C(=O)OC2 | TRUE
CC(C)(CO)[C@@H](O)C(=O)NCCC(=O)O | FALSE

---

Assay: Quantitative High-Throughput drug screen in 47 multiple myeloma cell lines against the NCATS MIPE library collection: LP1_DSMZ cell viability assay (AID 1918982); also: nearly all actives have a fitted effect of over 35% in size; also: potency is read from the fitted curve at half-maximal effect
Settings: LP1 myeloma viability, CellTiter-Glo ATP luminescence, 48 h; series mostly up to 45.8 µM
Source text: PI: Beverly A. Mock Ph.D. Laboratory of Cancer Biology and Genetics, Center for Cancer Research, National Cancer Institute, National Institute of Health, Bethesda, Maryland […] 5; Detector; 425V; Luminescence; Viewlux PerkinElmer. […] 1. […] Briefly, the corresponding myeloma cell lines were screened in 1,536-well plates with 500 cells, 5-uL per well for inhibition of cell viability (assessed by measuring ATP levels with CellTiterGlo). […]
Records with an inconclusive call do not appear. Active and inactive are the calls of the source. Calls come from the whole dose curve; as a rule, active = well fitted cell-killing curve with a large enough effect; inconclusive = small, poorly fitted or top-dose-only effect, or effect the other way; inactive = no such curve, though single readings can be large or run the other way.

Compound | Potency
COC(=O)N1CCN(Cc2cccc(NC(=O)Nc3ccc(C)nc3)c2F)CC1 | 16.6 µM (active)
COc1cc(F)c(C(C)C)cc1-c1ccc(C(F)(F)F)cc1CN1C(=O)O[C@H](c2cc(C(F)(F)F)cc(C(F)(F)F)c2)[C@@H]1C | 0.662 µM (active)
CN1C(=O)C[C@H](C(=O)N[C@@H](Cc2cnc[nH]2)C(=O)N2CCC[C@@H]2C(N)=O)NC1=O | inactive
N[C@@H](CC(=O)N1CCn2c(nnc2C(F)(F)F)C1)Cc1cc(F)c(F)cc1F | inactive
COc1cccc(OC)c1-c1cc(C(=O)NC2(C(=O)O)C3CC4CC(C3)CC2C4)nn1-c1ccnc2cc(Cl)ccc12 (configuration not stated) | inactive
Cc1[nH]c(C=C2C(=O)Nc3ccc(S(=O)(=O)N(C)c4cccc(Cl)c4)cc32)c(C)c1C(=O)N1CCN(C)CC1 | 18.7 µM (active)
COc1nc(C)cnc1NS(=O)(=O)c1cccnc1-c1ccc(-c2nnco2)cc1 | inactive
CON(C)C(=O)N1N=C(c2cc(F)ccc2F)S[C@]1(CCCN)c1ccccc1 | inactive
CC(C)C[C@@H](N)[C@H](O)C(=O)N[C@H](C(=O)N[C@H](C(=O)N[C@@H](CC(=O)O)C(=O)O)C(C)C)C(C)C | inactive
Cc1cnc(Nc2cccc(CN3CCOCC3)c2)nc1Nc1cccc(S(=O)(=O)NC(C)(C)C)c1 | 14.8 µM (active)
Fc1ccc(C(c2ccc(F)cc2)N2CCN(CC=Cc3ccccc3)CC2)cc1 | 16.6 µM (active)
CC=C1C2C=C(C)CC1(N)c1ccc(=O)[nH]c1C2 (configuration not stated) | inactive
O=C(NCCCCN1CCOCC1)c1cc2ccccc2o1 | inactive
COc1ccc(-c2cc3nccn3c(Nc3ncccc3C(N)=O)n2)cc1OC | 3.32 µM (active)
C[C@H]1COC2=C1C(=O)C(=O)c1c2ccc2c1CCCC2(C)C | 18.7 µM (active)
CCCCc1ccc(NS(=O)(=O)c2ccc(C)c(C(=O)N3CCN(c4cccc(C)c4C)CC3)c2)cc1 | 23.5 µM (active)
O=c1[nH]c(=O)n([C@H]2C[C@@H](O)[C@@H](CO)O2)cc1I | inactive
CCCCCOC(=O)Nc1nc(=O)n([C@@H]2O[C@H](C)[C@@H](O)C2O)cc1F (some centres not stated) | inactive
COc1ccc(-c2nc3ccc(C4=NNC(=O)CC4C)cc3[nH]2)cc1 (configuration not stated) | inactive
CCN(CC)CCCCNc1nc2cc(Cl)c(Cl)cc2nc1-c1ccc(-c2cccs2)s1 | 8.33 µM (active)
CO[C@H]1/C=C\O[C@@]2(C)Oc3c(C)c(O)c4c(O)c(c5c(nc6cc(C)ccn65)c4c3C2=O)NC(=O)C(C)=CC=C[C@H](C)[C@H](O)[C@@H](C)[C@@H](O)[C@@H](C)[C@H](OC(C)=O)[C@H]1C | inactive
CCC=CC[C@H]1C(=O)CC[C@@H]1CC(=O)OC | inactive
Cc1cc2nc3c(=O)[nH]c(=O)nc-3n(CC(O)C(O)C(O)CO)c2cc1C (configuration not stated) | inactive
COc1cc2nccc(Oc3ccc(NC(=O)Nc4ccc(F)cc4F)c(F)c3)c2cc1OC | 9.35 µM (active)
CC(C)CNc1ccnc(NCc2csc(-c3ccccc3)n2)n1 | 11.8 µM (active)
C[C@]12CC[C@@H]3c4ccc(O)cc4CC[C@H]3[C@H]1[C@@H](O)[C@@H](O)[C@H]2O | inactive
O=C(CCCN1CCN(c2ccc(F)cc2)CC1)NC1c2ccccc2CSc2ccccc21 (configuration not stated) | 2.96 µM (active)
CC1(C)[C@H]2CC[C@]3(C)[C@@H](C(=O)C=C4[C@@H]5C[C@@](C)(C(=O)O)CC[C@]5(C)CC[C@]43C)[C@@]2(C)CC[C@@H]1O | inactive
Cc1cccc(Nc2nc(N[C@@H]3CCCC[C@H]3N)ncc2C(N)=O)c1 | 18.7 µM (active)
O=C(O)c1ccc(O)c2ncc(N3CCOCC3)cc12 | 20.9 µM (active)
Cc1ccccc1-n1c(Cn2nc(-c3cccc(O)c3)c3c(N)ncnc32)nc2cccc(C)c2c1=O | 11.8 µM (active)
O=C(Nc1ccccc1)Nc1ccc(-c2ccc(C(=O)[C@H]3CCC[C@H]3C(=O)O)cc2)cc1 | inactive
CN1CC(=O)NC1=NC(=O)Nc1cccc(Cl)c1 | 14.8 µM (active)
OC(c1cc(C(F)(F)F)nc2c(C(F)(F)F)cccc12)C1CCCCN1 (configuration not stated) | 18.7 µM (active)
CC(C)C[C@H](NC(=O)c1cc2ccccc2s1)C(=O)N1CCN(C(=O)[C@H](CO)NS(=O)(=O)c2ccc(Cl)cc2Cl)CC1 | 26.4 µM (active)
CC(=O)Nc1cccc(-n2c(=O)n(C3CC3)c(=O)c3c(Nc4ccc(I)cc4F)n(C)c(=O)c(C)c32)c1 | inactive
O=C1CCCC(=O)C1C(=O)c1ccc(C(F)(F)F)cc1[N+](=O)[O-] | inactive

Attribution: PubChem BioAssay (NCATS)
